Reference source: ChEMBL document CHEMBL4270565

Give measured MIC90 for each item. Keep answers brief.
- Test system: Enterococcus faecalis
- PROTOCOL: Antibacterial activity against Enterococcus faecalis ATCC 29212 after 18 to 24 hrs by two-fold serial dilution method
- Type: functional
Answers are plain numbers, in µg/mL.

Please review the entries below; each comes with its answer.
- O=C1C(=O)N(CCCOC(=O)c2cn(C3CC3)c3cc(N4CCN(CCCN5C(=O)C(=O)c6ccccc65)CC4)c(F)cc3c2=O)c2ccccc21: 64
- CCO/N=C1\C(=O)N(CCCN2CCN(c3cc4c(cc3F)c(=O)c(C(=O)OCCCN3C(=O)/C(=N/OCC)c5cc(C)ccc53)cn4C3CC3)CC2)c2ccc(C)cc21: 64

Attention now shifts to the item below.
Task: Notebook entry, Enterococcus faecalis assay: MIC90 of `CCO/N=C1\C(=O)N(CCCN2CCN(c3cc4c(cc3F)c(=O)c(C(=O)O)cn4C3CC3)CC2)c2ccc(C)cc21` = ?
Output: 0.5
